Quick reference: pKa of the listed items.
experiment: Tested for pKa value of the compound
Type: physicochemical
No unit in the answer, only the number.

CC(C)C[C@H](O)[C@H](O)[C@@H](N)CC1CCCCC1	9.3

Req: I would be grateful if you could share the reported pKa for CC(C)C[C@H](O)[C@H](O)[C@H](CC1CCCCC1)NC(=O)[C@H](Cc1csc(N)n1)NC(=O)[C@H](Cc1ccccc1)NS(=O)(=O)N1CCOCC1 .
Resp: 6.3

* * *

experiment: Tested for aqueous solubility of the compound
Assay type: physicochemical
cond: read-out: S
Quick reference: solubility of the listed items.
Use µg/mL as the unit, but write only the number.

CC(C)C[C@H](O)[C@H](O)[C@@H](N)CC1CCCCC1	5870

Req: I would be grateful if you could share the reported solubility for CC(C)C[C@H](O)[C@H](O)[C@H](CC1CCCCC1)NC(=O)[C@H](Cc1csc(N)n1)NC(=O)[C@H](Cc1ccccc1)NS(=O)(=O)N1CCOCC1 .
Resp: 10
